experimentDescription: Optical / fluorescence properties (absorption, emission, extinction coefficient, quantum yield, lifetime)
Type: physicochemical
details: in dichloromethane
Each record here notes measured λem.
Don't forget the unit after the value.

COCCOCC#C[B-]1(C#CCOCCOC)n2c(C)cc(C)c2C(c2ccc(I)cc2)=C2C(C)=CC(C)=[N+]21: 511 nm
COCCOCC#C[B-]1(C#CCOCCOC)n2c(/C=C/c3ccc(OCCOCCOC)cc3)cc(C)c2C(c2ccc(C(=O)O)cc2)=C2C(C)=CC(/C=C/c3ccc(OCCOCCOC)cc3)=[N+]21: 662 nm

With those in mind, consider the next compound.
Query: Item `COCCOCC#C[B-]1(C#CCOCCOC)n2c(C)cc(C)c2C(c2ccc(C(=O)NCCN)cc2)=C2C(C)=CC(C)=[N+]21` has what recorded λem?
Reply: 513 nm
